# measured-on: human recombinant HDAC6 (Homo sapiens)
# Sequence (Q9UBN7 whole entry): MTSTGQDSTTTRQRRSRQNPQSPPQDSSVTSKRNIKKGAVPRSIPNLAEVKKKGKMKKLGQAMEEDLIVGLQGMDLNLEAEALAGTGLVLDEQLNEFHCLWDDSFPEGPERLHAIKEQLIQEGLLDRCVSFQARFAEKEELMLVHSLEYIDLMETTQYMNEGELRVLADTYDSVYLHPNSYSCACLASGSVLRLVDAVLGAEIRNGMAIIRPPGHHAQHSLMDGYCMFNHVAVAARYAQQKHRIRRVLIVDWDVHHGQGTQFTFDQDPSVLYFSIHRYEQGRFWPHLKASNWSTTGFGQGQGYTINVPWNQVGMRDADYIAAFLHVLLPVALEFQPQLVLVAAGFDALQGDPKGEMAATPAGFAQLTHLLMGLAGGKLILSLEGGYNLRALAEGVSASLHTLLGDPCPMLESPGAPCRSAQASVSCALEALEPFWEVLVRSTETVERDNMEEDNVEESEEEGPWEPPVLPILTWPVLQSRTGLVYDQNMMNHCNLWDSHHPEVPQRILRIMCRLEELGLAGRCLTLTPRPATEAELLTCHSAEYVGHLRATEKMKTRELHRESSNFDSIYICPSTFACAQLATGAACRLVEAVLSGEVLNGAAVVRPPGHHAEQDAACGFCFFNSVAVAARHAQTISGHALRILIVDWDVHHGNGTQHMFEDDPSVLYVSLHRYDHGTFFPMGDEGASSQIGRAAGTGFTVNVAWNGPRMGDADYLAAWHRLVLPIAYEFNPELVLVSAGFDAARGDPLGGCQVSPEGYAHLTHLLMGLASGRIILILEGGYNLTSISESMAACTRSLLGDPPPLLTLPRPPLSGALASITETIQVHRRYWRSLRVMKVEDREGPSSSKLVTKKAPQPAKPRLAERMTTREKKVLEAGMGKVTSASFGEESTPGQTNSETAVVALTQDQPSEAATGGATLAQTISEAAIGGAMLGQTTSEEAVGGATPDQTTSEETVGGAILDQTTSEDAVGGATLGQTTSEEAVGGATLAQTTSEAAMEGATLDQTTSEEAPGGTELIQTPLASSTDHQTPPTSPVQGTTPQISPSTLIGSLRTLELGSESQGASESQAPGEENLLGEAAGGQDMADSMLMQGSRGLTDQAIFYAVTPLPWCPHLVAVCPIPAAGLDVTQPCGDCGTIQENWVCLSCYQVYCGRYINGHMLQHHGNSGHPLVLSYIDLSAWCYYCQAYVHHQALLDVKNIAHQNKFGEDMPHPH
# run-description: HDAC6 enzyme activity inhibition assay (in vitro, fluorimetric)
# condition-description: human recombinant HDAC6, fluorimetric kit, same protocol as HDAC1
# Description: In order to examine the HDAC6 selectivity of the compounds of formula 1 of the present invention by HDAC1 and HDAC6 enzymatic activity inhibition assays, an experiment was performed using a conventional substance as a control. HDAC enzyme activity was measured using a HDAC Fluorimetric Drug Discovery Kit (BML-AK511, 516, Enzo Life Science). […] Based on the resulting values, each IC50 value was calculated using GraphPad Prism4.0 program.
pIC50: −log10 of the molar value.
Each entry gets NOT MET if its pIC50 stays under 7, and MET if its pIC50 is 7 or above.

Below are worked cases with known answers.
1. C[C@@H]1CN(CCc2ccccc2)C[C@H](C)N1Cc1ccc(C(=O)NO)cc1 [Compound 183] :: NOT MET
2. C[C@@H]1CN(C(=O)c2ccc(CC(=O)NO)cc2)C[C@H](C)N1Cc1ccccc1 [Compound 823] :: MET
3. CC(C)NC(=O)N1C[C@@H](C)N(Cc2ccc(C(=O)NO)cc2)[C@@H](C)C1 [Compound 103] :: NOT MET

Ask: Quick check, pIC50 >= 7? C[C@@H]1CN(Cc2ccc(/C=C/C(=O)NO)cc2)C[C@H](C)N1Cc1ccccc1 [Compound 172]
Result: MET
